Values compiled from patent US10646484B2.

Kindly state change in QTc associated with concomitant or illicit drug (covariate on QTc) for each of the entries shown.
- Tested on: opioid-dependent subjects
- assay info: Concentration-QT analysis pooled across clinical studies
- assay conditions: concentration-QT model covariate

Field: example entries. Status: answers known.
COC(=O)[C@H]1[C@@H](OC(=O)c2ccccc2)C[C@@H]2CC[C@H]1N2C: +1.7 msec
COc1ccc2c3c1O[C@H]1C(=O)CC[C@@]4(O)[C@@H](C2)N(C)CC[C@]314: -1.5 ms
c1ccc(C2(N3CCCCC3)CCCCC2)cc1: +3.4 msec
COc1ccc2c3c1O[C@H]1[C@@H](O)C=C[C@H]4[C@@H](C2)N(C)CC[C@@]341: +1.3 msec

Pending compound:
Query :: Form: Entry = CCC(=O)C(CC(C)N(C)C)(c1ccccc1)c1ccccc1 (centres unmarked) | System = opioid-dependent subjects | change in QTc associated with concomitant or illicit drug (covariate on QTc) = ____
Result :: +6.1 msec
